Biological target: T1, human PD-1 (construct not stated) (human, UniProt Q15116 25-167, limits assumed)
T1 construct: also called PD-1 analyte
T1 sequence (Q15116 25-167 limits assumed): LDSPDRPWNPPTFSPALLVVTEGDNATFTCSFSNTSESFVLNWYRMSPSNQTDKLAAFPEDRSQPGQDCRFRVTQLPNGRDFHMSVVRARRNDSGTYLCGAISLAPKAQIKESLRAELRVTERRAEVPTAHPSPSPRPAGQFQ
Experiment: Biacore, antibody captured, PD-1 analyte
Experimental: To further characterize the binding characteristics of the antibodies, 10 hybridoma antibodies were profiled using Biacore (Biacore 3000, GE) to elucidate binding kinetics and calculate equilibrium binding constants. This assay was performed by capture method, using the mouse antibody capture kit (BR-1008-38, GE). After diluting anti-mouse Fc mab to 25 μg/ml in pH 5.0 immobilization buffer, immobilization was conducted with the parameters shown in Table 6 at a flow rate of 5 μl/min. […]
PROPERTY: pKd
// pKd here means minus log10 of the molar concentration (mol/L)

Consider the reported pKd for these binders:
# BINDER, pKd
data = [
    ("14A6 murine anti-PD-1 antibody (antibody, V domains shown, Purified hybridoma antibody; also called 14A6-mIgG1) VH: DVQLQESGPGLVKPSQSLSLTCTVTGYSITSDYAWNWIRQFPGNQLEWMAYISYSGYTSYNPSLKSRISITRDTSRNQFFLQLNSVTTEDTATYYCARSLDYDYGTMDYWGQGTSVTVSS VL: QIVLSQSPAILSASPGEKVTMTCRANSSVSSMHWYQQKPGSSPEPWIYAISNLAFGVPARFSGSGSGTSYSLTISRVEAEDAATYFCQQWNSRPPTFGGGTKLEIKR", 10.52),
    ("15H5 murine anti-PD-1 antibody (antibody, V domains shown, Purified hybridoma antibody; also called 15H5-mIgG1) VH: EVKLVESGGGLVKPGGSLKLSCAASGFAFRSYDMSWVRQTPEKILEWVATISGGGSYTYYQDSVKGRFTISRDNARNTLYLQMSSLRSEDTALYYCASPYGPYFDYWGQGTTLTVSS VL: DIQMNQSPSSLSASLGDTITITCHASQSINVWLSWYQQKPGNIPKLLIYRASNLHTGVPSRFSGSGSGTGFTLTISSLQPDDIATYYCQQGQSYPWTFGGGTKLEIKR", 10.74),
]

Now examine the next entry.
Quick note, pKd for 6E1 murine anti-PD-1 antibody (antibody, V domains shown, Purified hybridoma antibody; also called 6E1-mIgG1) VH: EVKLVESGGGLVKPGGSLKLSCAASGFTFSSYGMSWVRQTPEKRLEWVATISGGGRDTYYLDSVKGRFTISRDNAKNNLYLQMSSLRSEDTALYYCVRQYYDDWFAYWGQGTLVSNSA VL: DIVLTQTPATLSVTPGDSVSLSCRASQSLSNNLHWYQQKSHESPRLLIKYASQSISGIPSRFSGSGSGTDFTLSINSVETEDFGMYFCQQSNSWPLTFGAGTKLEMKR landed at 10.59
